- test.summary: qHTS drug screen for cell cycle checkpoint inhibitors in PARPi-resistant BRCA-mutant ovarian cancer cell lines. (AID 1963452)
- condition.set: PEO1/OlaR viability, CellTiter-Glo luminescence, 96 h; measured here: PEO1 parental Z-AUC; stronger effect = lower value
In plain terms, low Z-AUC, meaning strictly below 0.1, gives class 1, and everything else gives class 0.

1) Cc1cc(-c2cc(OC(=O)c3ccccc3)ccc2Cl)cc2nnc(Nc3ccc(OCCN4CCCC4)cc3)nc12: class 0
2) c1ccc(-c2ccc(CNc3nc(-c4ccccn4)nnc3-c3ccccc3)cc2)cc1: class 1
3) COc1cccc(OCCCN)c1-c1cc(Nc2cnc(C#N)cn2)n[nH]1: class 1
4) OC(c1ccc(-c2ccc(CN3CCN(Cc4ccncc4)CC3)cc2)c(F)c1)(C(F)(F)F)C(F)(F)F: class 1

In: Is Z-AUC strictly under 0.1 for the entry "Cc1ccc(NC(=O)c2ccc(CN3CCNCC3)cc2)cc1Nc1nccc(-c2cccnc2)n1" ?
Out: class 0

In: Dear reviewer, please state whether "COC(C)(C)CCn1nc(Nc2c(C)cccc2C)c2cnc(Nc3ccc(OCCN4CCCC4)c(F)c3)nc21" has Z-AUC strictly beneath 0.1.
Out: class 1

In: Confirm or reject: Z-AUC of "COc1cc(OC)c2c(=O)[nH]c(-c3cc(C)c(OCCO)c(C)c3)nc2c1" lies strictly below 0.1
Out: class 0

In: Determine whether this molecule shows Z-AUC lower than 0.1 (ties excluded): "O=C([C@@H](Cc1cccc(C(F)(F)F)c1)NS(=O)(=O)c1cc(F)c2c(c1)CCNC2)N1CCCC1"
Out: class 1

* * *

- System: Tov-21-G
- test.summary: Primary qHTS to identify gynecologic anti-cancer compounds using libraries of approved drugs and bioactive compounds (AID 1345084); further: nearly all actives have a fitted effect of over 55% in size
- condition.set: Gynecologic cancer cell panel viability, ATPlite luminescence, 48 h; series mostly up to 57.5 µM
Results filed as inconclusive are left out. Calls of active or inactive are those of the source. Calls come from the whole dose curve; as a rule, active = well fitted cell-killing curve with a large enough effect; inconclusive = small, poorly fitted or top-dose-only effect, or effect the other way; inactive = flat fitted curve, though single readings scatter.
Please answer using one outcome listed in active, inactive

In: Hi, sorry to bother you, what did the test record for C=C1C(=O)O[C@@H]2C(OC(=O)/C(C)=C\C)/C(C)=C\C(=O)/C=C(\C)C[C@H](O)[C@@H]12 (some centres undefined) ?
Out: active

In: Fill in: this test's call for CC(=O)O[C@@H]1C[C@@]2(C)C(CC[C@]3(C)C2CC=C2C4CC(C)(C)CC[C@]4(C(=O)O)CC[C@]23C)C(C)(C)[C@H]1O (some centres undefined) is ___
Out: inactive

In: How did this test come out for "CC(=O)O[C@H]1C[C@H](OC(C)=O)[C@]2(C)[C@H](CC[C@@]34O[C@@H]3C3=C(C)C(=O)O[C@@H]3C[C@H]42)C1(C)C" ?
Out: inactive

In: Outcome logged for "Cc1ccc(-c2ncc[nH]2)cc1NC(=O)c1ccc(OCc2ccccn2)cc1" in this assay:
Out: inactive

In: Given C[C@@H]1CC[C@]2(C(=O)O)CC[C@]3(C)C(=CCC4[C@@]5(C)CC[C@H](O)[C@](C)(C(=O)O)C5CC[C@]43C)C2[C@]1(C)O (some centres undefined) , state the outcome it received in this test.
Out: inactive

In: Could you please tell me the result logged for "CNc1nc(NCc2ccc(NS(C)(=O)=O)cc2Cl)cc(-c2ccccn2)n1" in this assay?
Out: inactive

In: Per the assay record, what outcome was assigned to C/C1=C/CCC2=CC(OC2=O)C(C)(C)/C=C/C1=O (centres undefined) ?
Out: active

In: Identify the outcome logged in this assay for the compound shown: "COc1ccc2nccc(C(=O)CC[C@@H]3CCN(CC#Cc4cc(F)cc(F)c4F)C[C@@H]3C(=O)O)c2c1"
Out: inactive

In: Given "NS(=O)(=O)c1ccc(NC(=O)Nc2ccc(F)cc2)cc1" , state the outcome it received in this test.
Out: inactive

In: Which outcome did this test record for the compound CN1CC2CN(c3ccc4oc5ccccc5c(=O)c4c3)CC2C1 (centres undefined) ?
Out: inactive

In: Name the outcome recorded for O=C(Nc1ccccc1C(=O)NC1CCCCNC1=O)c1cc2ccccc2s1 (centres undefined) in the assay.
Out: inactive

In: Per the records of this test, what outcome belongs to "Nc1nc2c(nc(Br)n2[C@@H]2O[C@@H]3COP(=O)(O)O[C@H]3[C@H]2O)c(=O)[nH]1" ?
Out: inactive

In: Give the logged outcome of this assay for the following compound: "Cc1ccc(-c2ncccn2)c(C(=O)N2C[C@H](COc3ccc(F)cn3)CC[C@H]2C)c1"
Out: inactive

In: In this assay, the call recorded for "CCC(=O)N1CCOc2c(cc(-c3ccc(OC)c(OC)c3)cc2OC[C@H]2CCCN(C)C2)C1" was what?
Out: inactive

In: Hi, do you know how CC1(C(=O)Nc2ccc(F)nc2)CCCN1c1nc(Nc2cc(C3CC3)[nH]n2)c2cccn2n1 (centres undefined) came out in this test?
Out: active

In: // param item: "O=C(NC[C@H]1CN(c2ccc(N3CCOCC3=O)cc2)C(=O)O1)c1ccc(Cl)s1" ; yields the recorded call
Out: inactive

In: Hi, sorry to bother you, what did the test record for CC(=O)OC1CCC2(C)C(CCC3(C)C2CC=C2C4C(C)C(C)CCC4(C)CCC23C)C1(C)C(=O)O (centres undefined) ?
Out: inactive

In: Record request — test call for "COc1cc(/C=C2\CCCN([C@@H](C)c3ccc(F)cc3)C2=O)ccc1-n1cnc(C)c1"
Out: inactive

In: Which outcome was assigned to C/C=C(\C)C(=O)O[C@@H]1[C@@H](C)[C@]2(O)[C@@H]3C=C(C)C(=O)[C@H]3CC(CO)=C[C@H]2C2C(C)(C)[C@@]21OC(=O)C(C)CC (some centres undefined) in this test?
Out: inactive
